Source: paper PMC9667936

target: 14-3-3γ (Homo sapiens, UniProt P61981); construct: made in house; host or cells: E. coli NiCo21 (DE3); experiment: Fluorescence anisotropy (FA) binary binding study: 14-3-3 titrated to fluorescein-labelled peptide; conditions: Table S2; from FA KD; replicate 3
Sequence (P61981 whole entry): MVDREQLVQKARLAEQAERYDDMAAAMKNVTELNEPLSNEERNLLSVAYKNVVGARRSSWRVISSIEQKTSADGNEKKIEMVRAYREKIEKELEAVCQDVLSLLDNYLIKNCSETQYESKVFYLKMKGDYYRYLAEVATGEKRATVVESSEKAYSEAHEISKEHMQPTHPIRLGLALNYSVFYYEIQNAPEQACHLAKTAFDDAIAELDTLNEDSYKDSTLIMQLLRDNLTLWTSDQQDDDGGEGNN
Where a SMILES comes first, the peptide text is derived from it. [ ]: non-standard residue; d: D form. The star is where a group is joined. ξ: configuration not given here. FITC = O=C1OC2(c3ccc(O)cc3Oc3cc(O)ccc32)c2ccc(NC(=S)*)cc21; Phe(4-NO2) = N[C@@H](Cc1ccc([N+](=O)[O-])cc1)C(=O)O; ξAla(4-thiazolyl) = NC(Cc1cscn1)C(=O)O; pS = N[C@@H](COP(=O)(O)O)C(=O)O; β3hS = N[C@@H](CO)CC(=O)O; Nva = CCC[C@H](N)C(=O)O; ξβ3hS = NC(CO)CC(=O)O; βAla = NCCC(=O)O
measurement.name: ΔG

Please review the following examples before continuing.
CCC[C@H](N)C(=O)N[C@@H](Cc1ccc([N+](=O)[O-])cc1)C(=O)NC(Cc1cscn1)C(=O)N[C@@H](COP(=O)(O)O)C(=O)N[C@@H](Cc1ccc([N+](=O)[O-])cc1)C(=O)N[C@@H](CO)CC(=O)NCCC(=O)N[C@@H](Cc1ccc([N+](=O)[O-])cc1)C(=O)N[C@@H](CCCCN)C(=O)N[C@@H](C)C(=O)N[C@@H](CCCCNC(=S)Nc1ccc2c(c1)C(=O)OC21c2ccc(O)cc2Oc2cc(O)ccc21)C(N)=O (stereo partly drawn) [2a] (H-[Nva][Phe(4-NO2)][ξAla(4-thiazolyl)][pS][Phe(4-NO2)][β3hS][βAla][Phe(4-NO2)]KAK(FITC)-NH2): -10,11 kcal/mol
CCC[C@H](NC(=O)[C@H](N)CCCCN)C(=O)N[C@@H](Cc1ccc([N+](=O)[O-])cc1)C(=O)NC(Cc1cscn1)C(=O)N[C@@H](COP(=O)(O)O)C(=O)N[C@@H](Cc1ccc([N+](=O)[O-])cc1)C(=O)NC(CO)CC(=O)NCCC(=O)N[C@@H](Cc1ccc([N+](=O)[O-])cc1)C(=O)N[C@@H](CCCCN)C(N)=O (stereo partly drawn) [compound 1] (H-[dK][Nva][Phe(4-NO2)][ξAla(4-thiazolyl)][pS][Phe(4-NO2)][ξβ3hS][βAla][Phe(4-NO2)]K-NH2): -10,41 kcal/mol
C[C@H](NC(=O)[C@H](CCCCN)NC(=O)[C@H](Cc1ccc([N+](=O)[O-])cc1)NC(=O)CCNC(=O)C[C@H](CO)NC(=O)[C@H](Cc1ccc([N+](=O)[O-])cc1)NC(=O)[C@@H](N)COP(=O)(O)O)C(=O)N[C@@H](CCCCNC(=S)Nc1ccc2c(c1)C(=O)OC21c2ccc(O)cc2Oc2cc(O)ccc21)C(N)=O [2d] (H-[pS][Phe(4-NO2)][β3hS][βAla][Phe(4-NO2)]KAK(FITC)-NH2): -7,65 kcal/mol

Give measured ΔG for every item shown.
1. C[C@H](NC(=O)[C@H](CCCCN)NC(=O)[C@H](Cc1ccc([N+](=O)[O-])cc1)NC(=O)CCNC(=O)C[C@H](CO)NC(=O)[C@H](Cc1ccc([N+](=O)[O-])cc1)NC(=O)[C@H](COP(=O)(O)O)NC(=O)C(Cc1cscn1)NC(=O)[C@@H](N)Cc1ccc([N+](=O)[O-])cc1)C(=O)N[C@@H](CCCCNC(=S)Nc1ccc2c(c1)C(=O)OC21c2ccc(O)cc2Oc2cc(O)ccc21)C(N)=O (stereo partly drawn) [2b] (H-[Phe(4-NO2)][ξAla(4-thiazolyl)][pS][Phe(4-NO2)][β3hS][βAla][Phe(4-NO2)]KAK(FITC)-NH2)
2. C[C@H](NC(=O)[C@H](CCCCN)NC(=O)[C@H](Cc1ccc([N+](=O)[O-])cc1)NC(=O)CCNC(=O)C[C@H](CO)NC(=O)[C@H](Cc1ccc([N+](=O)[O-])cc1)NC(=O)[C@H](COP(=O)(O)O)NC(=O)C(N)Cc1cscn1)C(=O)N[C@@H](CCCCNC(=S)Nc1ccc2c(c1)C(=O)OC21c2ccc(O)cc2Oc2cc(O)ccc21)C(N)=O (stereo partly drawn) [2c] (H-[ξAla(4-thiazolyl)][pS][Phe(4-NO2)][β3hS][βAla][Phe(4-NO2)]KAK(FITC)-NH2)

# output
-9,54 kcal/mol
-9,88 kcal/mol
